tgt: ERα (Homo sapiens)
Construct: host or cells: MCF7 cells
methodDescription: Estrogen receptor degradation activity: breast cancer cell ERα in cell western assay (MCF7 cells)
Assay type: cell-based
protocolConditions: 4 hours, final concentrations ranging from 3-0.000018 μM, relative to fulvestrant 0.1 μM positive control
Think of 90% as a floor: if % Degradation At 3 μM stands on it or above, it is True; beneath it, False.

# example entries with known answers
compound: NC(=O)c1ccc2c(c1)CCCC(c1ccc(Cl)cc1Cl)=C2c1ccc(O[C@H]2CCN(CCCF)C2)cc1 [Example 3]
tgt: ERα (Homo sapiens)
answerLabel: True

compound: FCCCN1CC[C@H](Oc2ccc(C3=C(c4ccc(Cl)cc4Cl)CCCc4cc(-c5nn[nH]n5)ccc43)cc2)C1 [Example 16]
tgt: ERα (Homo sapiens)
answerLabel: False

compound: CONC(=O)c1ccc2c(c1)CCCC(c1ccc(Cl)cc1Cl)=C2c1ccc(O[C@H]2CCN(CCCF)C2)cc1 [Example 19]
tgt: ERα (Homo sapiens)
answerLabel: False

compound: O=C(O)Cc1ccc2c(c1)CCCC(c1ccc(Cl)cc1Cl)=C2c1ccc(O[C@H]2CCN(CCCF)C2)cc1 [Example 93]
tgt: ERα (Homo sapiens)
answerLabel: False

For this compound, is measured % Degradation At 3 μM 90% or higher? FCCCN1CC[C@H](Oc2ccc(C3=C(c4ccc(Cl)cc4Cl)CCCc4cc(-c5nncs5)ccc43)cc2)C1 [Example 9]
False

###

tgt: ERα (Homo sapiens)
Construct: host or cells: MCF7 cells
Sequence (P03372 1-595): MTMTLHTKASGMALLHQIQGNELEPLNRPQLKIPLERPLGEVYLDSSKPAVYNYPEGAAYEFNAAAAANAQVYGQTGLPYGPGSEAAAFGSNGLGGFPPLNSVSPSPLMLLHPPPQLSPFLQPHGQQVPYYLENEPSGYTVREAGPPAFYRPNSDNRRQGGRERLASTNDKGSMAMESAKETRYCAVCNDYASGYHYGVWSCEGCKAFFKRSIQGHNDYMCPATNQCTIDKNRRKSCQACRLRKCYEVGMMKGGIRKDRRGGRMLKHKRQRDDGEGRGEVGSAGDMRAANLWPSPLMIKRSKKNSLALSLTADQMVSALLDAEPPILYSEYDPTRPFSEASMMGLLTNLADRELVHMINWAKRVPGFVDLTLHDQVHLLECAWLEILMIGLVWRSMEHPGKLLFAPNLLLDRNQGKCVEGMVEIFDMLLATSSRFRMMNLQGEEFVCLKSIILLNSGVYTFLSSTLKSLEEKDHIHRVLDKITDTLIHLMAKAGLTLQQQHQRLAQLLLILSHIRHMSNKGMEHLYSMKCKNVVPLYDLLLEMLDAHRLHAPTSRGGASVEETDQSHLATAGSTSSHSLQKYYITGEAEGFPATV
methodDescription: Estrogen receptor degradation activity: breast cancer cell ERα in cell western assay (MCF7 cells)
Type: cell-based
protocolConditions: 4 hours, final concentrations ranging from 3-0.000018 μM, relative to fulvestrant 0.1 μM positive control
Think of 80% as a floor: if % Degradation At 3 μM stands on it or above, it is Yes; beneath it, No.

# example entries with known answers
molecule: O=C(NO)c1ccc2c(c1)CCCC(c1ccc(Cl)cc1Cl)=C2c1ccc(O[C@H]2CCN(CCCF)C2)cc1
answerLabel: Yes

molecule: CON(C)C(=O)c1ccc2c(c1)CCCC(c1ccc(Cl)cc1Cl)=C2c1ccc(O[C@H]2CCN(CCCF)C2)cc1
answerLabel: No

molecule: CC(=N)Nc1ccc2c(c1)CCCC(c1ccc(Cl)cc1Cl)=C2c1ccc(O[C@H]2CCN(CCCF)C2)cc1
answerLabel: Yes

For this molecule, is measured % Degradation At 3 μM 80% or higher? NC(=O)NNC(=O)c1ccc2c(c1)CCCC(c1ccc(Cl)cc1Cl)=C2c1ccc(O[C@H]2CCN(CCCF)C2)cc1
Yes

For this molecule, is measured % Degradation At 3 μM 80% or higher? O=C(O)/C=C/c1ccc2c(c1)CCCC(c1ccc(Cl)cc1Cl)=C2c1ccc(O[C@H]2CCN(CCCF)C2)cc1
Yes
